System: HLA-A*24
Experiment: MHC binding assay, UV-ligand exchange with beta2m ELISA, HLA-A*24
Parameters: species or system human
Settings: binding to HLA-A*24 ranged by peptide exchange yield (UV-ligand exchange, beta2m ELISA)
Source text: Candidate peptides for T cell based therapies according to the present invention were further tested for their MHC binding capacity (affinity). The individual peptide-MHC complexes were produced by UV-ligand exchange, where a UV-sensitive peptide is cleaved upon UV-irradiation, and exchanged with the peptide of interest as analyzed. Only peptide candidates that can effectively bind and stabilize the peptide-receptive MHC molecules prevent dissociation of the MHC complexes. […]
Parameter measured: Peptide exchange

Solved entries (count: 6):
146 (NYYERIHAL; listed as Homo sapiens) [compound 146]; +++ (50%-75% = +++)
199 (SYLNHLNNL; listed as Homo sapiens) [compound 199]; +++ (50%-75% = +++)
164 (HYVPATKVF; listed as Homo sapiens) [compound 164]; +++ (50%-75% = +++)
293 (VYPHFSTTNLI; listed as Homo sapiens) [compound 293]; ++++ (>=75% = ++++)
125 (VFSRDFGLLVF; listed as Homo sapiens) [compound 125]; +++ (50%-75% = +++)
308 (TFDGHGVFF; listed as Homo sapiens) [compound 308]; +++ (50%-75% = +++)

Consider the following items and state reported Peptide exchange for each.
1. 351 (IFHEVPLKF; listed as Homo sapiens) [compound 351]
2. 148 (SYGTVSQIF; listed as Homo sapiens) [compound 148]
3. 192 (RYSTFSEIF; listed as Homo sapiens) [compound 192]

1: +++ (50%-75% = +++); 2: ++++ (>=75% = ++++); 3: +++ (50%-75% = +++)
